Test system: Pioneer 39K40 hybrid maize
Assay: Test C: visual plant response rating, postemergence acetohydroxy acid synthase-inhibiting herbicides alone and with Compound 1
Assay type: in vivo, Zea mays L. spp. indentata Sturt.
Details: herbicide 17.5 g ai/ha, greenhouse, two weeks, 0-100 scale
Metric: Observed Response, Herbicide alone
Form field (numeric): enter value without unit.

For COC(=O)c1c(Cl)nn(C)c1S(=O)(=O)NC(=O)Nc1nc(OC)cc(OC)n1 on Pioneer 39K40 hybrid maize, measured Observed Response, Herbicide alone was 37

For COC(=O)c1ccc(CNS(C)(=O)=O)cc1S(=O)(=O)NC(=O)Nc1nc(OC)cc(OC)n1 on Pioneer 39K40 hybrid maize, measured Observed Response, Herbicide alone was 100

For COC(=O)c1ccc(I)cc1S(=O)(=O)NC(=O)Nc1nc(C)nc(OC)n1 on Pioneer 39K40 hybrid maize, measured Observed Response, Herbicide alone was 100

For CC(C)C1(C)N=C(c2nc3ccccc3cc2C(=O)O)NC1=O (stereo not shown) on Pioneer 39K40 hybrid maize, measured Observed Response, Herbicide alone was 100

---

System: Pioneer 39K40 hybrid maize
Assay: Test C: visual plant response rating, postemergence acetohydroxy acid synthase-inhibiting herbicides alone and with Compound 1
Format: in vivo, Zea mays L. spp. indentata Sturt.
Details: herbicide 17.5 g ai/ha + Compound 1 125 g ai/ha, greenhouse, two weeks, 0-100 scale
Here, each record is paired with measured Observed Response, Herbicide mixture with Compound 1 data.
Form field (numeric): enter value without unit.

The examples below pair each entry with its known result.
Molecule | Number
COC(=O)c1ccc(I)cc1S(=O)(=O)NC(=O)Nc1nc(C)nc(OC)n1 [Iodosulfuron-methyl, iodosulfuron-methyl] | 57
COC(=O)c1ccc(CNS(C)(=O)=O)cc1S(=O)(=O)NC(=O)Nc1nc(OC)cc(OC)n1 [Mesosulfuron-methyl, mesosulfuron-methyl] | 100
COC(=O)c1c(Cl)nn(C)c1S(=O)(=O)NC(=O)Nc1nc(OC)cc(OC)n1 [Halosulfuron-methyl, halosulfuron-methyl] | 10

Okay, now this molecule:
# Observed Response, Herbicide mixture with Compound 1 (molecule: CC(C)C1(C)N=C(c2nc3ccccc3cc2C(=O)O)NC1=O (stereo not shown) [Imazaquin, imazaquin] ) is 100
